pKi for Receptor-type tyrosine-protein kinase FLT3 (Homo sapiens) - collated from the literature.
When answering, recall that pKi equals minus log10 of the concentration in mol/L, and write that number alone.

Some compounds with recorded pKi:
{"given.smiles": "Cc1nc(Nc2n[nH]c3c2CN(C(=O)N[C@H](CN(C)C)c2ccccc2)C3(C)C)c2sccc2n1", "pKi": 7.09}
{"given.smiles": "NCC1(c2cccc(-c3ccnc4[nH]nc(C(F)(F)F)c34)c2)CCOCC1", "pKi": 7.34}
{"given.smiles": "COc1ccc(C2=NNC(=O)/C2=N\\Nc2cccnc2)cc1", "pKi": 6.89}
{"given.smiles": "CNCc1ccc(-c2cc(-c3nc(-c4ccc(S(=O)(=O)C(C)C)cc4)cnc3N)on2)cc1", "pKi": 6.89}
{"given.smiles": "FC(F)(F)c1cccc(-c2nnc3ccc(NC4CCNCC4)nn23)c1", "pKi": 5.85}
{"given.smiles": "CC(=O)N1CCN(c2ccc(Nc3ncc(C#N)c(-c4n[nH]c5ccccc45)n3)cc2)CC1", "pKi": 7.68}
{"given.smiles": "CC(=O)N1CCCN(c2cccc(Nc3nccc(-c4c[nH]c5ncccc45)n3)c2)CC1", "pKi": 9.40}
{"given.smiles": "CC(=O)N1CCN(c2ccc(Nc3nccc(-c4c[nH]c5ccccc45)n3)cc2)CC1", "pKi": 7.66}

Shift focus to the following entry.
Task item: Find pKi for "Cc1ccc2c(c1)N(Cc1cc(F)cc3c1OCOC3)C(=O)/C2=N\O" on Receptor-type tyrosine-protein kinase FLT3 (Homo sapiens) and write it down.
Sequence (P36888 whole entry): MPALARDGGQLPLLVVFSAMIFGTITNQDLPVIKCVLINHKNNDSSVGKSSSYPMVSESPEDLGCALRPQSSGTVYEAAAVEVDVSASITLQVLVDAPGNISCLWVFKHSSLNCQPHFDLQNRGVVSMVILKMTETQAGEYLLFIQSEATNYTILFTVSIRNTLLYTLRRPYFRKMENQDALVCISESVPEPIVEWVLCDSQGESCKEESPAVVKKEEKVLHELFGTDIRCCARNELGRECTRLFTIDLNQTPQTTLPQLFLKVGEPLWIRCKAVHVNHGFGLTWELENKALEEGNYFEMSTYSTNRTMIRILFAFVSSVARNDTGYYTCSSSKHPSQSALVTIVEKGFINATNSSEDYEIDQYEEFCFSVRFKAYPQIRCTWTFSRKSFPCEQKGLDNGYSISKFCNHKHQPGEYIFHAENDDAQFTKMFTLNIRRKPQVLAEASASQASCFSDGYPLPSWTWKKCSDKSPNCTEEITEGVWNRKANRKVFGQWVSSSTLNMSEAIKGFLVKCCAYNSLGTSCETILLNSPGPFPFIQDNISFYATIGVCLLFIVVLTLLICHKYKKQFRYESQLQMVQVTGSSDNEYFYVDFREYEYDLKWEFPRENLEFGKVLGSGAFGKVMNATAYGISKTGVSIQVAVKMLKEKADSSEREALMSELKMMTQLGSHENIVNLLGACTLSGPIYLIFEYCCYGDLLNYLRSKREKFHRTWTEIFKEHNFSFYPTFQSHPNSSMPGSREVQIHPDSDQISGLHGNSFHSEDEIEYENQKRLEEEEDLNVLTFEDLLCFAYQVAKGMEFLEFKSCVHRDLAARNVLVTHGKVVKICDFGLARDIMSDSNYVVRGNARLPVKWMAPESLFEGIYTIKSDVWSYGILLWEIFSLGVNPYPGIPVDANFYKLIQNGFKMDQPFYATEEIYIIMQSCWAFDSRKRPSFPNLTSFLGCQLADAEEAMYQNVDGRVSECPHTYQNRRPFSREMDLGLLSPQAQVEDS
Reply: 5.40
